Here the recorded CC50 is given for each entry.
- System: A549 cells
- Method Description: Cytotoxicity assay (AlamarBlue)
- Stated Conditions: read-out: CC50 (μM), cytotoxic concentration 50%; A549 cell line, 48 h

Molecule: O=C(NCc1ccc(C(F)(F)F)c(F)c1)c1cc(Cl)ccc1O [Compound 36]
System Tested: A549 cells
CC50, µM: 22.3

Molecule: Cc1ccc(O)c(C(=O)Nc2cc(F)cc(C(F)(F)F)c2)c1 [Compound 19]
System Tested: A549 cells
CC50, µM: 15.2

Molecule: O=C(Nc1ccc(NCc2ccc(Cl)cc2)cc1Cl)c1cc(Cl)ccc1O [Compound 96]
System Tested: A549 cells
CC50, µM: 59.7

Molecule: CC(C)[C@H](NC(=O)c1cc(Cl)ccc1NS(C)(=O)=O)C(=O)Nc1ccc([N+](=O)[O-])cc1Cl [Compound 70]
System Tested: A549 cells
CC50, µM: 174

Molecule: O=C(NCc1ccc(Cl)cc1)c1cc(Cl)ccc1O [Compound 38]
System Tested: A549 cells
CC50, µM: 27.1

Molecule: O=C(Nc1ccc(NCc2ccc3cn[nH]c3c2)cc1Cl)c1cc(Cl)ccc1O [Compound 114]
System Tested: A549 cells
CC50, µM: 45.3

Molecule: O=C(Nc1ccc(NC2CCCCC2)cc1Cl)c1cc(Cl)ccc1O [Compound 88]
System Tested: A549 cells
CC50, µM: 68.3

Molecule: Cc1ccc(CNC(=O)c2cc(Cl)ccc2O)cc1 [Compound 44]
System Tested: A549 cells
CC50, µM: 87.7

Reference source: patent US20230140290A1
